Give pKd for every item shown.
target: T1, PD-L1 extracellular domain (ECD) (UniProt Q9NZQ7 19-238, limits assumed); test: yeast-displayed clone, soluble PD-L1 titration, flow cytometry
T1 construct: extracellular domain; Soluble PD-L1 used in the yeast-display titrations and in BLI; Tags or biotinylation are not described; also called Programmed death-ligand 1; CD274
T1 sequence (Q9NZQ7 19-238 limits assumed): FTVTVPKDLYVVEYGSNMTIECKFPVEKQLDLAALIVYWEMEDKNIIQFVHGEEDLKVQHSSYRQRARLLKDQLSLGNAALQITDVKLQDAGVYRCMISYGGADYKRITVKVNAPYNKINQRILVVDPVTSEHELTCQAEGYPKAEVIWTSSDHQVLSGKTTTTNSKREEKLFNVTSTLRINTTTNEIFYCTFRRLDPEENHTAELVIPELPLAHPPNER
Units for pKd: none; it is -log10 of a concentration expressed in mol/L.

Input line: pKd for A9 VNAR (VNAR, VNAR (shark variable new antigen receptor single domain) from nurse sharks immunised with the PD-L1 ECD; Measured on yeast and as a soluble fragment (BLI)) VNAR: ARVDQTPQTITKETGESLTINCVVRDTACALVRTFWYRKKSGSTNEESISKGGRYVETVNRGSKSFSLRINDLTVEDSGTYRCKVFGWCRMRDVYGGGTVVTVN ?
Output line: 6.65

Input line: pKd for B8 VNAR (VNAR, VNAR (shark single domain); Measured on yeast and as a soluble fragment (BLI); Not the same as B8 scFv) VNAR: ARVDQTPQTITKETGESLTINCVLRDASYALGSTCWYRKKSGSTNEESISIGGRYVETVNSGSKSFSLRINDLTVEDSGTYRCGVDSWCPPVCSWAYAGCGDGTAVTVN ?
Output line: 7.01

Input line: pKd for C7 VNAR (VNAR, Not the same as C7 scFv) VNAR: ARVDQTPQTITKETGESLTINCVVRDSACALVRTFWYRKKSGSTNEESISKGGRYVETVNSGSKSFSLRINDLTVEDSGTYRCKVFGWCRMRDVYGGGTVVTVN ?
Output line: 6.40
